Below, each entry is listed alongside its reported viability.
assay: reduced viability of SK-BR-3 breast cancer cells – cell-based, 24 h, human, pilot screen (AID 572); settings: SK-BR-3 viability, CellTiter-Glo luminescence, at 10 µM, stronger effect = lower value;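 also: compound exposure lasted between 18 and 24 h rather than exactly 24 h; 100% = carrier-treated control wells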

| compound | viability, % |
| --- | --- |
| COc1ccc(N2CCN(CCNC(=O)CCS(=O)(=O)c3cccc4nsnc34)CC2)cc1 | 90 |
| O=C(Cn1nc(Cc2cccnc2)c2ccccc2c1=O)Nc1ccc2c(c1)OCO2 | 87 |
| O=C(Cn1ncc2c(=O)oc3ccccc3c21)NCCCN1CCCC1=O | 86.5 |
| Cc1nc2ccccc2c2oc(C(=O)NCC3COc4ccccc4O3)cc12 (stereo not drawn) | 103 |
| Nc1nc2n(n1)C(c1cccc(Br)c1)CC(c1ccccc1)N2 (stereo not drawn) | 93.5 |
| CCOC(=O)N1CCC(c2cc(=O)n3[nH]cc(C(=O)OC)c3n2)CC1 | 94.5 |
| CCOC(=O)N1CCN(C(=O)c2ccc(CS(=O)(=O)c3ccc(OC)cc3)o2)CC1 | 88 |
| CCSc1nc(O)c(CC)c(=O)n1C(C)CC (stereo not drawn) | 104 |
| Cc1ccc(CCP(=O)(O)CN2CCOCC2)cn1 | 85 |
| O=C(Oc1ccc2ccc(OC(=O)N3CCOCC3)cc2c1)N1CCOCC1 | 96.5 |
| Cc1ccc(C(=O)Nc2ccc(Cl)cn2)cc1S(=O)(=O)N1CCOCC1 | 90 |
| CCOc1ccc2nc(N3CCC(C(=O)N4CCN(C5CCCCC5)CC4)CC3)sc2c1 | 83 |
| CN1CCc2c(sc3c2C(=O)NC(c2cccc(OC(=O)c4cccs4)c2)N3)C1 (stereo not drawn) | 81.5 |
| COc1ccc(N2CCN(C(=O)CSc3ccccc3)CC2)cc1 | 113 |
| O=C(c1ccc(Br)o1)N(Cc1ccccc1)c1ccccn1 | 93.5 |
| CCOC(=O)C(CC)Sc1ncnc2nc[nH]c12 (stereo not drawn) | 104 |
| CC(=O)Nc1cccc(NC(=O)CSc2nn3c(=O)c(C)nnc3s2)c1 | 100 |
| O=C(Cn1cc2c(n1)CCCC2)NCCc1ccccc1 | 105 |
| COc1ccc(-c2nnc3sc(C(C)N4C(=O)c5ccccc5C4=O)nn23)cc1 (stereo not drawn) | 84 |
| O=C(Nc1cccc(Cl)c1)N1CCN(Cc2ccccc2)CC1 | 98.5 |
| Cc1ccc(C2CC(c3ccc(C)cc3)n3nc(N)nc3N2)cc1 (stereo not drawn) | 95 |
| Brc1ccc2ncnc(Nc3ccc(N4CCOCC4)cc3)c2c1 | 86 |
| Cn1cccc1Cc1nnc(SCC(=O)NCc2ccc(F)cc2)n1-c1ccc(F)cc1 | 94.5 |

Measured values drawn from PubChem BioAssay for this set.
